Assignment: determine reported n, surface heterogeneity constant (desorption) for the given compounds.
Test Details: Desorption isotherms
Type: physicochemical
Condition Info: warm-I (Table 2)

Below are worked cases with known answers.
Data request: State its n, surface heterogeneity constant (desorption) for this compound: CC(C)(c1ccc(O)cc1)c1ccc(O)cc1
Data returned: 1.218

Data request: State its n, surface heterogeneity constant (desorption) for this compound: Oc1ccc(C(c2ccc(O)cc2)(C(F)(F)F)C(F)(F)F)cc1
Data returned: 1.154

Data request: State its n, surface heterogeneity constant (desorption) for this compound: CCC(C)(c1ccc(O)cc1)c1ccc(O)cc1
Data returned: 1.179

Data request: State its n, surface heterogeneity constant (desorption) for this compound: Oc1ccc(Cc2ccc(O)cc2)cc1
Data returned: 1.186

Continuing:
Data request: State its n, surface heterogeneity constant (desorption) for this compound: O=S(=O)(c1ccc(O)cc1)c1ccc(O)cc1
Data returned: 1.207

###

Test Details: Desorption kinetics of bisphenols from bisphenol-attached PVC microplastics
Assay type: physicochemical
Condition Info: warm-I, pH 6.5, 311 K
Assignment: determine reported Fvs, very slow fraction for the given compounds.
Give bare numbers.

Data request: State its Fvs, very slow fraction for this compound: CC(C)(c1ccc(O)cc1)c1ccc(O)cc1
Data returned: 0.019

Data request: State its Fvs, very slow fraction for this compound: CCC(C)(c1ccc(O)cc1)c1ccc(O)cc1
Data returned: 0.010

Would you kindly look at the next entry?
Data request: State its Fvs, very slow fraction for this compound: Oc1ccc(Cc2ccc(O)cc2)cc1
Data returned: 0.005

###

System: grass carp hepatocyte cell line, L8824
Test Details: cells
Type: cell-based
Condition Info: calculated for concentration desorbed in water, high concentration (2 mg L^−1)
Measurement Name: Cytotoxicity (proliferation reduction), L8824 (%)
Give bare numbers, in %.

Below are worked cases with known answers.
Data request: State its Cytotoxicity (proliferation reduction), L8824 for this compound: Oc1ccc(Cc2ccc(O)cc2)cc1
Data returned: 27.15

Data request: State its Cytotoxicity (proliferation reduction), L8824 for this compound: CCC(C)(c1ccc(O)cc1)c1ccc(O)cc1
Data returned: 26.25

Data request: State its Cytotoxicity (proliferation reduction), L8824 for this compound: Oc1ccc(C(c2ccc(O)cc2)(C(F)(F)F)C(F)(F)F)cc1
Data returned: 32.70

Would you kindly look at the next entry?
Data request: State its Cytotoxicity (proliferation reduction), L8824 for this compound: CC(C)(c1ccc(O)cc1)c1ccc(O)cc1
Data returned: 20.08

###

Assignment: determine reported kFd, Freundlich constant for desorption for the given compounds.
Test Details: Desorption isotherms
Format: physicochemical
Condition Info: warm-I (Table 2)
Give bare numbers, in mg^−1/n·L^−1/n·g^−1.

Data request: State its kFd, Freundlich constant for desorption for this compound: O=S(=O)(c1ccc(O)cc1)c1ccc(O)cc1 [BPS, bisphenol S]
Data returned: 0.341

Record kFd, Freundlich constant for desorption per entry; entries follow.
1. CC(C)(c1ccc(O)cc1)c1ccc(O)cc1 [BPA, bisphenol A]
2. Oc1ccc(Cc2ccc(O)cc2)cc1 [BPF, bisphenol F]
3. CCC(C)(c1ccc(O)cc1)c1ccc(O)cc1 [BPB, bisphenol B]

Data returned:
1. 0.398
2. 0.388
3. 0.428

Data request: State its kFd, Freundlich constant for desorption for this compound: Oc1ccc(C(c2ccc(O)cc2)(C(F)(F)F)C(F)(F)F)cc1 [BPAF, bisphenol AF]
Data returned: 0.465

###

Assignment: determine reported Cytotoxicity (proliferation reduction), MCF-7 for the given compounds.
Tested on: human breast adenocarcinoma cells, MCF-7
Test Details: cells
Type: cell-based
Condition Info: calculated for concentration desorbed in warm-I, high concentration (2 mg L^−1)
Give me the value, and tack the unit on after it.

Below are worked cases with known answers.
Data request: Report Cytotoxicity (proliferation reduction), MCF-7 on human breast adenocarcinoma cells, MCF-7 for this entry: Oc1ccc(Cc2ccc(O)cc2)cc1
Data returned: 26.54%

Data request: Report Cytotoxicity (proliferation reduction), MCF-7 on human breast adenocarcinoma cells, MCF-7 for this entry: Oc1ccc(C(c2ccc(O)cc2)(C(F)(F)F)C(F)(F)F)cc1
Data returned: 36.87%

Data request: Report Cytotoxicity (proliferation reduction), MCF-7 on human breast adenocarcinoma cells, MCF-7 for this entry: CC(C)(c1ccc(O)cc1)c1ccc(O)cc1
Data returned: 21.75%

Would you kindly look at the next entry?
Data request: Report Cytotoxicity (proliferation reduction), MCF-7 on human breast adenocarcinoma cells, MCF-7 for this entry: CCC(C)(c1ccc(O)cc1)c1ccc(O)cc1
Data returned: 29.53%

###

Assignment: determine reported kFd, Freundlich constant for desorption for the given compounds.
Test Details: Desorption isotherms
Format: physicochemical
Condition Info: water (Table 2)
Numbers only, in mg^−1/n·L^−1/n·g^−1.

Record kFd, Freundlich constant for desorption per entry; entries follow.
1. O=S(=O)(c1ccc(O)cc1)c1ccc(O)cc1
2. Oc1ccc(Cc2ccc(O)cc2)cc1

Data returned:
0.602
0.720

Record kFd, Freundlich constant for desorption per entry; entries follow.
1. Oc1ccc(C(c2ccc(O)cc2)(C(F)(F)F)C(F)(F)F)cc1
2. CC(C)(c1ccc(O)cc1)c1ccc(O)cc1
3. CCC(C)(c1ccc(O)cc1)c1ccc(O)cc1

Data returned:
1.933
1.033
1.542

###

Assignment: determine reported Cytotoxicity (proliferation reduction), L8824 for the given molecules.
System: grass carp hepatocyte cell line, L8824
Test Details: cells
Format: cell-based
Condition Info: calculated for concentration desorbed in warm-I, high concentration (2 mg L^−1)
Give bare numbers, in %.

Data request: State its Cytotoxicity (proliferation reduction), L8824 for this molecule: CC(C)(c1ccc(O)cc1)c1ccc(O)cc1
Data returned: 29.75

Data request: State its Cytotoxicity (proliferation reduction), L8824 for this molecule: CCC(C)(c1ccc(O)cc1)c1ccc(O)cc1
Data returned: 36.95

Data request: State its Cytotoxicity (proliferation reduction), L8824 for this molecule: Oc1ccc(Cc2ccc(O)cc2)cc1
Data returned: 33.24

Continuing:
Data request: State its Cytotoxicity (proliferation reduction), L8824 for this molecule: Oc1ccc(C(c2ccc(O)cc2)(C(F)(F)F)C(F)(F)F)cc1
Data returned: 46.31

###

Test Details: Desorption kinetics of bisphenols from bisphenol-attached PVC microplastics
Assay type: physicochemical
Condition Info: cold-I, pH 7.5, 291 K
Measurement Name: Fslow, slow fraction

Data request: State its Fslow, slow fraction for this compound: CCC(C)(c1ccc(O)cc1)c1ccc(O)cc1
Data returned: 0.456±0.005

Data request: State its Fslow, slow fraction for this compound: CC(C)(c1ccc(O)cc1)c1ccc(O)cc1
Data returned: 0.395±0.003

Data request: State its Fslow, slow fraction for this compound: Oc1ccc(C(c2ccc(O)cc2)(C(F)(F)F)C(F)(F)F)cc1
Data returned: 0.409±0.002

Data request: State its Fslow, slow fraction for this compound: O=S(=O)(c1ccc(O)cc1)c1ccc(O)cc1
Data returned: 0.383±0.001

Would you kindly look at the next entry?
Data request: State its Fslow, slow fraction for this compound: Oc1ccc(Cc2ccc(O)cc2)cc1
Data returned: 0.335±0.002

###

Test Details: Adsorption of bisphenols onto PVC microplastics
Format: physicochemical
Condition Info: 1.5 g PVC microplastics in 1 L, 48 h, room temperature
Measurement Name: amount of bisphenol adsorbed on the PVC (mg/g)
One number for each entry, in mg/g.

Below are worked cases with known answers.
Data request: State its amount of bisphenol adsorbed on the PVC for this compound: Oc1ccc(C(c2ccc(O)cc2)(C(F)(F)F)C(F)(F)F)cc1 [BPAF, bisphenol AF]
Data returned: 0.24

Data request: State its amount of bisphenol adsorbed on the PVC for this compound: O=S(=O)(c1ccc(O)cc1)c1ccc(O)cc1 [BPS, bisphenol S]
Data returned: 0.15

Data request: State its amount of bisphenol adsorbed on the PVC for this compound: CC(C)(c1ccc(O)cc1)c1ccc(O)cc1 [BPA, bisphenol A]
Data returned: 0.19

Data request: State its amount of bisphenol adsorbed on the PVC for this compound: CCC(C)(c1ccc(O)cc1)c1ccc(O)cc1 [BPB, bisphenol B]
Data returned: 0.23

Continuing:
Data request: State its amount of bisphenol adsorbed on the PVC for this compound: Oc1ccc(Cc2ccc(O)cc2)cc1 [BPF, bisphenol F]
Data returned: 0.16

###

Test Details: Desorption kinetics of bisphenols from bisphenol-attached PVC microplastics
Type: physicochemical
Condition Info: warm-I, pH 6.5, 311 K
Measurement Name: krap, rapid desorption rate constant

Below are worked cases with known answers.
Data request: State its krap, rapid desorption rate constant for this molecule: Oc1ccc(C(c2ccc(O)cc2)(C(F)(F)F)C(F)(F)F)cc1 [BPAF, bisphenol AF]
Data returned: 2.609±0.521 10^-2 h^-1

Data request: State its krap, rapid desorption rate constant for this molecule: Oc1ccc(Cc2ccc(O)cc2)cc1 [BPF, bisphenol F]
Data returned: 1.744±0.373 10^-2 h^-1

Data request: State its krap, rapid desorption rate constant for this molecule: CCC(C)(c1ccc(O)cc1)c1ccc(O)cc1 [BPB, bisphenol B]
Data returned: 2.479±0.452 10^-2 h^-1

Data request: State its krap, rapid desorption rate constant for this molecule: CC(C)(c1ccc(O)cc1)c1ccc(O)cc1 [BPA, bisphenol A]
Data returned: 2.163±0.456 10^-2 h^-1

Would you kindly look at the next entry?
Data request: State its krap, rapid desorption rate constant for this molecule: O=S(=O)(c1ccc(O)cc1)c1ccc(O)cc1 [BPS, bisphenol S]
Data returned: 1.497±0.391 10^-2 h^-1
